Value source: ChEMBL document CHEMBL1124545

- TARGET_UNDER_TEST: Muscarinic acetylcholine receptor M3 (Rattus norvegicus, UniProt P08483)
- Sequence (P08483 whole entry): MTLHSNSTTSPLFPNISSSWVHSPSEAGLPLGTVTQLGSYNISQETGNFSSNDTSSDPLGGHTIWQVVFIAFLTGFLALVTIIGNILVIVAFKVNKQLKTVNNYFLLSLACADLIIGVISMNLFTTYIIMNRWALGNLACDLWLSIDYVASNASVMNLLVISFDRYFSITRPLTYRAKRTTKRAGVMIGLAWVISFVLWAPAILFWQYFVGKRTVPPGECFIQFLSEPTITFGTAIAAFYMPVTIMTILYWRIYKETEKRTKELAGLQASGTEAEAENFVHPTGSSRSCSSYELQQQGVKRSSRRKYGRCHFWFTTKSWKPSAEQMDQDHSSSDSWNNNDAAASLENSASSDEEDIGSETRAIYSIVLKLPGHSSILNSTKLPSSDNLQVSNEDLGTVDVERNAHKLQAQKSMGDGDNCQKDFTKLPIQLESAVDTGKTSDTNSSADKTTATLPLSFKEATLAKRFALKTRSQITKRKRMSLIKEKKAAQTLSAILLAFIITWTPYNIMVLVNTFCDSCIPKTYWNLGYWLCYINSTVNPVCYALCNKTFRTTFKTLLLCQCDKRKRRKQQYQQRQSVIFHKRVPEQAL
- TEST_METHOD_NOTES: Binding affinity for glandular muscarinic acetylcholine receptor M3 in rat assayed using 0.3 nM [3H]N-methylscopolamine as radioligand
Mark yes (1) for IC50 under 4000 nM, no (0) if at or over.

> print(dat)
                                    molecule  classification
 1  CCN(CC)CC1CCCCN1CC(=O)N1c2ccccc2C(=O)Nc2cccnc21 (stereo in doubt; 29) [OTENZEPAD]          no (0)
 2  CCCN(CCC)CC1CCCCN1CC(=O)N1c2ccccc2C(=O)Nc2cccnc21 (stereo not given)          no (0)
 3  O=C1Nc2cccnc2N(C(=O)CN2CCCCC2CN2CCCC2)c2ccccc21 (stereo not given)         yes (1)
 4  CCN(CC)CCC1CCCCN1CC(=O)N1c2ccccc2C(=O)Nc2cccnc21 (stereo not given)         yes (1)
 5  CCN(CC)CC1CCCN1CC(=O)N1c2ccccc2C(=O)Nc2cccnc21 (stereo not given)         yes (1)
 6  CCN(CC)CC1CCCCCN1CC(=O)N1c2ccccc2C(=O)Nc2cccnc21 (stereo not given)          no (0)
 7  CCNCC1CCCCN1CC(=O)N1c2ccccc2C(=O)Nc2cccnc21 (stereo not given)         yes (1)
 8  CN(C)CC1CCCCN1CC(=O)N1c2ccccc2C(=O)Nc2cccnc21 (stereo not given)         yes (1)
 9  CCN(CC)CC1CCCCN1CC(=O)N1c2ccccc2C(=O)Nc2cccnc21 (stereo in doubt; 28) [OTENZEPAD]          no (0)
10  CCN(CC)CC1CCCCN1C(=O)N1c2ccccc2C(=O)Nc2cccnc21 (stereo not given)          no (0)
11  CN(CC1CCCCN1CC(=O)N1c2ccccc2C(=O)Nc2cccnc21)C1CCCCCC1 (stereo not given)         yes (1)
12  CCN(CC)CCCC1CCCCN1CC(=O)N1c2ccccc2C(=O)Nc2cccnc21 (stereo not given)         yes (1)
13  CCN(CC)CC1CCCCN1CCC(=O)N1c2ccccc2C(=O)Nc2cccnc21 (stereo not given)         yes (1)
14  CCN(CC)CC1CCCCN1CC(=O)N1c2cc(C)ccc2C(=O)Nc2cccnc21 (stereo not given)         yes (1)
15  CCN(CC)CC1CCCCN1CC(=O)N1c2ccc(C)cc2C(=O)Nc2cccnc21 (stereo not given)         yes (1)
16  CCN(CC)CC1CCCN(CC(=O)N2c3ccccc3C(=O)Nc3cccnc32)C1 (stereo not given)         yes (1)

====

- TARGET_UNDER_TEST: Muscarinic acetylcholine receptor M3 (Rattus norvegicus, UniProt P08483)
- TEST_METHOD_NOTES: Binding affinity of compound for glandular Muscarinic acetylcholine receptor M3 in rat using 0.3 nM [3H]N-methylscopolamine as radioligand
MEASUREMENT_TYPE: IC50 (µM)

> print(dat)
                                   molecule  quantitative.result
1  O=C1Nc2cccnc2N(C(=O)CN2CCCCC2CN2CCCCC2)c2ccccc21 (stereo unspecified)                  1.5
